measurement-label: melting point

Input CCOC(=O)c1cc(-c2ccc(Cl)cc2)n(C(Cc2ccccc2)C(=O)N/N=C/c2c(C)[nH]c(C(=O)OCC)c2C)c1C (centres unmarked) [Compound 1C] . Output melting point: > 230 °C

* * *

Catalogue of melting point values

A selection of reference data follows.
compound	melting point
CCOC(=O)c1cc(-c2ccc(Cl)cc2)n(C(Cc2ccccc2)C(=O)N/N=C/c2c(C)[nH]c(C)c2C(=O)OCC)c1C (stereo not shown)	> 230 °C
CCOC(=O)c1cc(-c2ccc(Cl)cc2)n(C(Cc2ccccc2)C(=O)N/N=C/c2[nH]c(C(=O)OCC)c(C)c2C(=O)OCC)c1C (stereo not shown)	109 to 112 °C
CCOC(=O)c1cc(-c2ccc(Cl)cc2)n(C(Cc2ccccc2)C(=O)NN)c1C (stereo not shown)	170 to 173 °C

Could you now look at the following compound, please?
Input CCOC(=O)c1cc(-c2ccc(Cl)cc2)n(C(Cc2ccccc2)C(=O)N/N=C/c2[nH]c(C)c(C(=O)OCC)c2C)c1C (stereo not shown) . Output melting point: 129 to 132 °C

Source listed as paper PMC11643554.
